molecular target: D93, recombinant humanized IgG1 kappa antibody targeting denatured-collagen; assay: competition ELISA on coated human dn-collagen IV
Square brackets hold non-standard residues; d marks the D form. Ends that are not written are not given here. Hyp = O=C(O)[C@@H]1C[C@@H](O)CN1
So basically: % inhibition of D93 binding to dn-collagen IV, peptide 1000 µM at 30% or higher? That is Yes. Lower than 30%? That is No.

Solved entries (count: 5):
binder	discrete_label
CTWPRHHTTDALL [non-collagen control peptide No. 6, … (SEQ ID NO: 39)]	No
[Hyp]GAKGLPGP [synthetic peptide No. 13, … (SEQ ID NO: 17)]	No
L[Hyp]GF[Hyp]G [synthetic peptide No. 19, LPGFPG (SEQ ID NO: 23)]	Yes
F[Hyp]GP[Hyp]GPDGL[Hyp]GSMGP[Hyp]G [synthetic peptide No. 7, … (SEQ ID NO: 36)]	Yes
L[Hyp]GT[Hyp]G [synthetic peptide No. 8, LPGTPG (SEQ ID NO: 27)]	No

Decide: is the reported value of % inhibition of D93 binding to dn-collagen IV, peptide 1000 µM for GPXGPXG (contains hydroxyproline ('where P is hydroxyproline'); positions marked in the tables but lost in this text) [synthetic peptide No. 15, GPPGPPG (SEQ ID NO: 32)] equal to or greater than 30%? Yes

Decide: is the reported value of % inhibition of D93 binding to dn-collagen IV, peptide 1000 µM for LPGPPGPPG (also: hydroxyproline at marked P positions, if any, marking lost) [synthetic peptide No. 18, … (SEQ ID NO: 22)] equal to or greater than 30%? No

Decide: is the reported value of % inhibition of D93 binding to dn-collagen IV, peptide 1000 µM for LPGFPGC (also: hydroxyproline marking, if any, lost) [synthetic peptide No. 9, LPGFPGC (SEQ ID NO: 37)] equal to or greater than 30%? No

Decide: is the reported value of % inhibition of D93 binding to dn-collagen IV, peptide 1000 µM for GPXGPXGP (hydroxyproline at the P positions marked in Tables 13 and 14; marking lost in this text) [synthetic peptide No. 17, GPPGPPGP (SEQ ID NO: 31)] equal to or greater than 30%? Yes

Decide: is the reported value of % inhibition of D93 binding to dn-collagen IV, peptide 1000 µM for GP[Hyp]GP[Hyp]GPY [synthetic peptide No. 3, … (SEQ ID NO: 30)] equal to or greater than 30%? Yes

Decide: is the reported value of % inhibition of D93 binding to dn-collagen IV, peptide 1000 µM for L[Hyp]GL[Hyp]G [synthetic peptide No. 14, LPGLPG (SEQ ID NO: 25)] equal to or greater than 30%? Yes

Decide: is the reported value of % inhibition of D93 binding to dn-collagen IV, peptide 1000 µM for LPGP[Hyp]GP[Hyp]G [synthetic peptide No. 20, … (SEQ ID NO: 21)] equal to or greater than 30%? Yes

Decide: is the reported value of % inhibition of D93 binding to dn-collagen IV, peptide 1000 µM for L[Hyp]GS[Hyp]G [synthetic peptide No. 10, LPGSPG (SEQ ID NO: 26)] equal to or greater than 30%? No

Decide: is the reported value of % inhibition of D93 binding to dn-collagen IV, peptide 1000 µM for [Hyp]GAKGLPGP[Hyp]GP[Hyp]GPY [synthetic peptide No. 12, … (SEQ ID NO: 2)] equal to or greater than 30%? Yes

Decide: is the reported value of % inhibition of D93 binding to dn-collagen IV, peptide 1000 µM for L[Hyp]GP[Hyp]G [synthetic peptide No. 16, LPGPPG (SEQ ID NO: 24)] equal to or greater than 30%? Yes

Decide: is the reported value of % inhibition of D93 binding to dn-collagen IV, peptide 1000 µM for PGP[Hyp]GP[Hyp]GPY [synthetic peptide No. 4, … (SEQ ID NO: 28)] equal to or greater than 30%? Yes

Decide: is the reported value of % inhibition of D93 binding to dn-collagen IV, peptide 1000 µM for PGP[Hyp]GP[Hyp]GP [synthetic peptide No. 1, … (SEQ ID NO: 29)] equal to or greater than 30%? Yes
